Molecular target: T1, deamidase polypeptide from Chryseobacterium sp-62563 (deamidase domain of the pro-form SEQ ID NO: 5) (Chryseobacterium sp-62563)
T1 chain: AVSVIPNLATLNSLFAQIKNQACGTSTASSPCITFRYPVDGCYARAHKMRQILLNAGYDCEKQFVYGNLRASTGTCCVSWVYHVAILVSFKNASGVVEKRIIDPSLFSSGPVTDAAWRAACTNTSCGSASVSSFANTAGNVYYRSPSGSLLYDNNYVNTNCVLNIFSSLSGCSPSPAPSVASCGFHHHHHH
Test: cell-based or functional assay
QUANTITY NAME: Leakage activity (%)

{"columns": ["BINDER", "RESULT UNIT", "VAL"],
 "data": [
  ["variant deamidase propeptide F99A of Chryseobacterium sp-62563 (SEQ ID NO: 2) (other) NQDPNLVAKESNETAMKDFGKTVPVGIEKEDGKFKISFMVTAQPYEIKDSKENAAYISMIKTAVENETPIHVFLKANTNEIAKVDKATDDDIRYFKSVATKEVKEENRK", "%", 20]
]}

[P] variant deamidase propeptide Y45T of Chryseobacterium sp-62563 (SEQ ID NO: 2) (other) NQDPNLVAKESNETAMKDFGKTVPVGIEKEDGKFKISFMVTAQPTEIKDSKENAAYISMIKTAVENETPIHVFLKANTNEIAKVDKATDDDIRYFKSVFTKEVKEENRK
[Q] variant deamidase propeptide F99K of Chryseobacterium sp-62563 (SEQ ID NO: 2) (other) NQDPNLVAKESNETAMKDFGKTVPVGIEKEDGKFKISFMVTAQPYEIKDSKENAAYISMIKTAVENETPIHVFLKANTNEIAKVDKATDDDIRYFKSVKTKEVKEENRK
[R] variant deamidase propeptide F99G of Chryseobacterium sp-62563 (SEQ ID NO: 2) (other) NQDPNLVAKESNETAMKDFGKTVPVGIEKEDGKFKISFMVTAQPYEIKDSKENAAYISMIKTAVENETPIHVFLKANTNEIAKVDKATDDDIRYFKSVGTKEVKEENRK
[S] variant deamidase propeptide V23S of Chryseobacterium sp-62563 (SEQ ID NO: 2) (other) NQDPNLVAKESNETAMKDFGKTSPVGIEKEDGKFKISFMVTAQPYEIKDSKENAAYISMIKTAVENETPIHVFLKANTNEIAKVDKATDDDIRYFKSVFTKEVKEENRK
Ranking field: Leakage activity; order: falling. Give me the labels in the order the question wants.
Q, R, S, P

[A] variant deamidase propeptide Y94P of Chryseobacterium sp-62563 (SEQ ID NO: 2) (other) NQDPNLVAKESNETAMKDFGKTVPVGIEKEDGKFKISFMVTAQPYEIKDSKENAAYISMIKTAVENETPIHVFLKANTNEIAKVDKATDDDIRPFKSVFTKEVKEENRK
[B] variant deamidase propeptide Y45G of Chryseobacterium sp-62563 (SEQ ID NO: 2) (other) NQDPNLVAKESNETAMKDFGKTVPVGIEKEDGKFKISFMVTAQPGEIKDSKENAAYISMIKTAVENETPIHVFLKANTNEIAKVDKATDDDIRYFKSVFTKEVKEENRK
Between item A and item B , which reported Leakage activity is smaller? Give the chosen item's label as your response.
B

Values were extracted from patent EP4242303A1.
